B1: Homeobox protein cut-like 1, residues 548 to 629; numbered along this chain, P39880 (parent)
chain: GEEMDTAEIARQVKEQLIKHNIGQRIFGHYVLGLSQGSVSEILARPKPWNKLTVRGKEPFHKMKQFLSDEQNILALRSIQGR

Variants of: B1
Experiment: abundance fitness (aPCA) (normalised: wild type 0, dead -1); higher = more abundant; growth selection in yeast, the domain comes from the species named
Details: Homo sapiens
The threshold is inclusive: abundance fitness of exactly -0.03 counts as Fulfilled; values below receive Not fulfilled.

Previously resolved entries follow.
>  <PRIMARY_SEQUENCE>
GEEMDTAEIANQVKEQLIKHNIGQRIFGHYVLGLSQGSVSEILARPKPWNKLTVRGKEPFHKMKQFLSDEQNILALRSIQGR [R11N]

>  <GROUP_LABEL>
Not fulfilled

$$$$
>  <PRIMARY_SEQUENCE>
GEEMDTAEIARQVKEQLIKHQIGQRIFGHYVLGLSQGSVSEILARPKPWNKLTVRGKEPFHKMKQFLSDEQNILALRSIQGR [N21Q]

>  <GROUP_LABEL>
Fulfilled

$$$$
>  <PRIMARY_SEQUENCE>
GEEMDTAEIARQVKEQLIKHNIGQRIFGHYVLGLSQGSVSEILARPKPWNKLTVRGKEPFHKMKQFLSDEQNILYLRSIQGR [A75Y]

>  <GROUP_LABEL>
Fulfilled

$$$$
>  <PRIMARY_SEQUENCE>
GEFMDTAEIARQVKEQLIKHNIGQRIFGHYVLGLSQGSVSEILARPKPWNKLTVRGKEPFHKMKQFLSDEQNILALRSIQGR [E3F]

>  <GROUP_LABEL>
Fulfilled

$$$$

Read the next record carefully.
query: Does the variant GEEMRTAEIARQVKEQLIKHNIGQRIFGHYVLGLSQGSVSEILARPKPWNKLTVRGKEPFHKMKQFLSDEQNILALRSIQGR [D5R] have recorded abundance fitness that is -0.03 or more?
result: Not fulfilled
